subjectOfTest: BCL-2 (Homo sapiens)
Sequence (P10415 whole entry): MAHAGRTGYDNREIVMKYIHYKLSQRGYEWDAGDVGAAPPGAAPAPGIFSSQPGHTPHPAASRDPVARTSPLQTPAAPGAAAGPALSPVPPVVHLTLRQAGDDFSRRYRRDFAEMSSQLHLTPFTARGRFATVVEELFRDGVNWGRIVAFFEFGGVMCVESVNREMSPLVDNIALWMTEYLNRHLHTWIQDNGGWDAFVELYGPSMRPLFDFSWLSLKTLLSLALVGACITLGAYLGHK
assayProtocol: HTRF BCL-2/BAK assay (Cisbio)
condition: recombinant human Tag1-BCL-2 2 nM, Tag2-BAK 10 nM
pIC50: −log10 of the molar value.
For each of the compounds below, state its pIC50.

Please review the following examples before continuing.
State, in one line, measured pIC50 of CC(C)(C)OC(=O)NCCN1CCC2(CC1)CC(CNc1ccc(S(=O)(=O)NC(=O)c3ccc(N4CCN([C@@H]5CCCCc6c(Cl)cccc65)CC4)cc3)cc1[N+](=O)[O-])C2 6.70 to 7.70

Supply pIC50 value. Item: CS(=O)(=O)N1CCC2(CC1)CC(CNc1ccc(S(=O)(=O)NC(=O)c3ccc(N4CCN([C@@H]5CCCCc6c(Cl)cccc65)CC4)cc3Oc3cnc4[nH]ccc4c3)cc1[N+](=O)[O-])C2 > 7.70

Next compound, pIC50 to be filled in.
Annotate the compound Cc1nnc2n1CC(CNc1ccc(S(=O)(=O)NC(=O)c3ccc(N4CCN(C5CCCCc6c(Cl)cccc65)CC4)cc3Oc3cnc4[nH]ccc4c3)cc1[N+](=O)[O-])CC2 (stereo not drawn) with its measured pIC50. > 7.70

====

subjectOfTest: BCL-XL (Homo sapiens, UniProt Q07817)
Construct: purchased Cisbio 63ADK000CB04PEG
Sequence (Q07817 whole entry): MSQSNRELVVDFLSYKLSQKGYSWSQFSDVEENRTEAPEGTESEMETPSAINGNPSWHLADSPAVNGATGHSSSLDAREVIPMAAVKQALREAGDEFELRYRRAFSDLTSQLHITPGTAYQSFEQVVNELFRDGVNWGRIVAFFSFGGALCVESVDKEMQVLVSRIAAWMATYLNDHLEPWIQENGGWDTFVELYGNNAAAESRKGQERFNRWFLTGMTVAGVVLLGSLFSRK
assayProtocol: HTRF BCL-XL/BAK assay (Cisbio)
Type: binding
condition: recombinant human Tag1-BCL-XL 2 nM, Tag2-BAK 5 nM
pIC50: −log10 of the molar value.
experimentalReadout: pIC50

# map each compound to its pIC50
1. O=C(O)CN1CCC2(CC1)CC(CNc1ccc(S(=O)(=O)NC(=O)c3ccc(N4CCN([C@@H]5CCCCc6c(Cl)cccc65)CC4)cc3Oc3cnc4[nH]ccc4c3)cc1[N+](=O)[O-])C2 [Compound 123]
2. CC(=O)N1CCC2(CC1)CC(CNc1ccc(S(=O)(=O)NC(=O)c3ccc(N4CCN([C@@H]5CCCCc6c(Cl)cccc65)CC4)cc3)cc1[N+](=O)[O-])C2 [Compound 118]
3. O=C(NS(=O)(=O)c1ccc(NCC2CCC3(CC2)COC3)c([N+](=O)[O-])c1)c1ccc(N2CCN([C@@H]3CCCCc4c(Br)cccc43)CC2)cc1Oc1cnc2[nH]ccc2c1 [Compound 67]
4. O=C(NS(=O)(=O)c1ccc(NCC2CC3(CCN(CC(F)(F)F)CC3)C2)c([N+](=O)[O-])c1)c1ccc(N2CCN([C@@H]3CCCCc4c(Cl)cccc43)CC2)cc1Oc1cnc2[nH]ccc2c1 [Compound 115]
5. O=C(NS(=O)(=O)c1ccc(NCC2CCOCC2)c([N+](=O)[O-])c1)c1ccc(N2CCN([C@@H]3CCCCc4c(Cl)cc(F)cc43)CC2)cc1Oc1cnc2[nH]ccc2c1 [Compound 87]
6. O=C(NS(=O)(=O)c1ccc(NCC2CC3(COC3)C2)c([N+](=O)[O-])c1)c1ccc(N2CCN([C@@H]3CCCCc4c3cccc4[N+](=O)[O-])CC2)cc1Oc1cnc2[nH]ccc2c1 [Compound 75]
7. O=C(NS(=O)(=O)c1ccc(NCC2CC3(CCNCC3)C2)c([N+](=O)[O-])c1)c1ccc(N2CCN([C@@H]3CCCCc4c(Cl)cccc43)CC2)cc1 [Compound 117]

> 7.70
< 5.70
6.70 to 7.70
5.70 to 6.70
6.70 to 7.70
6.70 to 7.70
6.70 to 7.70

Batch request: pIC50 per item, same order as input.
1. O=C(NS(=O)(=O)c1ccc(NCC2CCOCC2)c([N+](=O)[O-])c1)c1ccc(N2CCN(C3COCc4ccccc43)CC2)cc1Oc1cnc2[nH]ccc2c1 (stereo not shown) [Compound 12]
2. O=C(NS(=O)(=O)c1ccc(NC[C@H]2CO[C@H]3OCC[C@@H]23)c([N+](=O)[O-])c1)c1ccc(N2CCN([C@@H]3CCCCc4c(Br)cc(F)cc43)CC2)cc1Oc1cnc2[nH]ccc2c1 (relative stereo) [Compound 82]
3. O=C(NS(=O)(=O)c1ccc(NCC2CCC3(CC2)COC3)c([N+](=O)[O-])c1)c1ccc(N2CCN(C3CCCCc4c(Cl)cccc43)CC2)cc1Oc1cnc2[nH]ccc2c1 (stereo not shown) [Compound 38]

1: < 5.70; 2: 5.70 to 6.70; 3: 5.70 to 6.70
